Target: T1, human IL-6 (human, UniProt P05231 30-212)
T1 construct: Soluble IL-6 of the mAb SPR (analyte was 3×FLAG-IL-6 or IL-6 CYT-213); also called recombinant human IL-6 (Prospec-Tany CYT-213, CYT-274)
Experiment: SPR (SensiQ Pioneer), mAb captured on protein G, IL-6 as analyte (3×FLAG-IL-6 or IL-6 CYT-213, 1-100 nM), 25 C, 1:1 model
Entries and their Kd
readout: Kd

1. 13A8 chimeric mAb (antibody, V domains shown, HEK293; also called 13A8 clone) VH: QSVEESGGRLVTPGTPLTLTCTVSGIDLSSYDMSWVRQAPGKGLEWIGYIYTDSSTWYANWAKGRFTISKTSSTTVDLKMTSLTTEDTATYFCAKGSTDYAFDTRLDLWGPGTLVTVSS VL: NIVMTQTPSPVSGAVGGTVTINCQASQSISNELSWYQQKPGQPPRLLIYRASTLTSGVSSRFKGSGAGTQFTLTISGVECADAATYYCQQGYNSNDVDNVFGGGTKVVVVR : 0.218 nM
2. 18D4 chimeric mAb (antibody, V domains shown, Rabbit/human chimeric IgG (human IgG1, kappa); HEK293; also called 18D4 clone) VH: QSVEESGGRLVTPGTPLTLTCTVSGFSLSSYAMTWVRQAPGKGLEWIGTSYVYSGDTWYASWVKGRFTISKTSTTVDLKITSPTTEDTATYFCARVGDYDDYGAHDVFDSWGPGTLVTVSS VL: YDMTQTPASVEVAVGGTVTIKCQASESISSWLSWYQQKPGQRPKLLLYRASTLASGVSSRFSGSGYGTEFTLTISGVQCEDAATYYCQQGYTGGNVDNAFGGGTKVVVVR : 0.128 nM
3. 9C8 chimeric mAb (antibody, V domains shown, Rabbit/human chimeric IgG (human IgG1, kappa); HEK293; also called 9C8 clone) VH: QSVEESGGRLVTPGTPLTLTCTVSGIDLSSYDMSWVRQAPGKGLEWIGYIYTDSSTYYANWAKGRFTISKTSTTVDLKMTSLTTEDTATYFCAKGSTDYAFDTRLDLWGPGTLVTVS VL: AYDMTQTPASVEVAMGGTVTIKCQASQSISNELSWYQQKPGQPPKLLIYRTSTLASGVSSRFKGSGSGTEYTLTISGVECADAATYYCQQGYNSNDVDNVFGGGTKVVVVR : 0.042 nM
4. 9H4 chimeric mAb (antibody, V domains shown, Rabbit/human chimeric IgG (human IgG1, kappa); HEK293; also called 9H4 clone) VH: QSLEESGGRLVTPGTPLTLTCTASGFSLSSYDMSWVRQAPGKGLEWIGYIYTDTSTYYANWAKGRFSISKTSTTVDLKMTSLTAEDTATYFCAKGSTDYAFDTRLDLWGPGTLVTVSS VL: YDMTQTPASVEVAMGGTVTIKCQASQSISNELSWYQQKPGQPPKLLIYRTSTLASGVSSRFKGSGSGTEYTLTISGVECADAATYYCQQGYNSNDVDNVFGGGTEVVVVR : 0.058 nM
